Measured IC50 of individual entries
ASSAY_SYSTEM: Bcl-2 protein (histag-Bcl-2, UniProtKB P10415) (Homo sapiens (Human), UniProt P10415)
Sequence (P10415 whole entry): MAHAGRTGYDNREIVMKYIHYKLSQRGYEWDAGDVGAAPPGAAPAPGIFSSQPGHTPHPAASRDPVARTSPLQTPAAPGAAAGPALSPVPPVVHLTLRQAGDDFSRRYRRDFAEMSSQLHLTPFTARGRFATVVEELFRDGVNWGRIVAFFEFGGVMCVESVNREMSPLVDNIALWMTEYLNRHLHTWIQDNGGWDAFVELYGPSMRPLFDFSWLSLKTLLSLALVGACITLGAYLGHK
TEST_DESCRIPTION: Inhibition of Bcl-2 by the fluorescence polarisation technique
Type: binding
CONDITION_DETAILS: fluorescence polarisation test; incubation for 2 hours; read-out: IC50 (nM) Bcl-2 FP
MEASURED_PARAMETER: IC50

1) COc1ccc(CC(=O)N2Cc3cc(C(=O)N4Cc5ccccc5C[C@H]4C)c(-c4cc(C(=O)N(C)c5ccc(O)cc5)c(C)n4C)cc3C2)cc1 :: 2.6 nM
2) C[C@@H]1Cc2ccccc2CN1C(=O)c1cc2c(cc1-c1cc(C(=O)N(C)c3ccc(O)cc3)c3n1CCCC3)CCN(C(=O)Cc1ccc(CN3CCOCC3)cc1)C2 :: 3.3 nM
3) Cc1c(C(=O)N(C)c2ccccc2)cc(-c2cc3c(cc2C(=O)N2Cc4ccccc4C[C@H]2C)CN(C(=O)Cc2ccccc2)CC3)n1C :: 3.4 nM
4) CN(C(=O)c1cc(-c2cc3c(cc2C(=O)N2Cc4ccccc4C[C@H]2CN2CCOCC2)CN(C(=O)Oc2ccc(-n4ccnc4)cc2)CC3)n2c1CCCC2)c1ccc(O)cc1 :: 5.5 nM
5) C[C@@H]1Cc2ccccc2CN1C(=O)c1cc2c(cc1-c1cc(C(=O)N(C)c3ccc(O)cc3)c3n1CCCC3)CCN(S(=O)(=O)c1ccc3ccccc3c1)C2 :: 26 nM
